Source listed as the RepoRT retention time repository (doi:10.1016/j.jchromb.2020.122105).

- method: RP, Waters CORTECS T3, 100 × 2.1 mm, 2.7 µm, 0.2 mL/min, estimated dead time 1.1 min; A: water + 0.1% formic acid, pH 3; B: methanol + 0.1% formic acid, pH 3; gradient (min/%B) 0/0 1/0 6/5 30/100 35/100 35.1/0 40/0
- condition-details: stereoisomer not certain
property-name: LC retention time (min)

I. CCCCCCSCC(NC(=O)CCC(N)C(=O)O)C(=O)NCC(=O)O (stereo not drawn)
II. O=c1cccc[nH]1 [2-HYDROXYPYRIDINE]
III. Nc1nc2nc[nH]c2c(=O)[nH]1
IV. O=c1cc[nH]c(=O)[nH]1
Request: // ascending sort on LC retention time for the entries above Answer by writing out the labels in the requested order.
Response: IV, II, III, I
(IV: 1.36 min, II: 4.15 min, III: 6.86 min, I: 19.5 min)

P. CC(=O)OCC(=O)C1CCC2C3CCC4=CC(=O)CCC4(C)C3CCC12C (stereo not drawn) [DEOXYCORTICOSTERONE ACETATE]
Q. CC(=O)NC(CCCCN)C(=O)O (stereo not drawn)
R. O=C(O)c1cc(=O)c2ccccc2[nH]1 [4-HYDROXY-2-QUINOLINECARBOXYLIC ACID]
Request: Please rank these compounds by LC retention time in descending order. Answer by writing out the labels in the requested order.
Response: P, R, Q

1. NC(Cc1cc(I)c(Oc2cc(I)c(O)c(I)c2)c(I)c1)C(=O)O (stereo not drawn)
2. N[C@@H](Cc1ccc(O)c(O)c1)C(=O)O [3,4-DIHYDROXY-L-PHENYLALANINE]
Request: // returns 1 or 2 , whichever has the lower LC retention time Respond with the label that goes with your answer.
Response: 2
(2: 1.38 min, 1: 22.8 min)

I. C=CC1=C(C)C(C=c2[nH]c(=Cc3[nH]c(C=C4NC(=O)C(C)=C4C=C)c(C)c3CCC(=O)O)c(CCC(=O)O)c2C)=NC1=O
II. Cn1cnc(=N)c2[nH]cnc21
Request: Could you please tell me which of these two has the higher LC retention time: I or II ? Respond with the label that goes with your answer.
Response: I
(I: 23.5 min, II: 1.34 min)

----------
- method: RP, Waters CORTECS T3, 100 × 2.1 mm, 2.7 µm, 0.3 mL/min, estimated dead time 0.73 min; A: water + 0.1% formic acid, pH 3; B: methanol + 0.1% formic acid, pH 3; gradient (min/%B) 0/5 5/5 25/95 25.1/100 35/100 35.1/5 45/5
- condition-details: stereoisomer not certain
property-name: LC retention time (min)

> print(dat)
                                   molecule  value.measured
1                Cn1c(=O)c2c(ncn2C)n(C)c1=O            10.2
2  C=CC1=C(C)C(C=c2[nH]c(=Cc3[nH]c(C=C4NC(=O)C(C)=C4C=C)c(C)c3CCC(=O)O)c(CCC(=O)O)c2C)=NC1=O            19.9
3  N[C@@H](Cc1ccc(O)c(O)c1)C(=O)O [3,4-DIHYDROXY-L-PHENYLALANINE]             0.9
4  C=Cc1c(C)c2cc3[nH]c(cc4nc(cc5nc(cc1[nH]2)C(C)=C5CCC(=O)O)C(CCC(=O)O)=C4C)c(C)c3C=C            26.1

A. NC(=O)c1cccnc1 [NICOTINAMIDE]
B. Cc1cc2nc3[nH]c(=O)[nH]c(=O)c3nc2cc1C
C. N[C@@H](Cc1ccc(O)c([N+](=O)[O-])c1)C(=O)O
D. CC(=O)NCCc1c[nH]c2ccc(O)cc12
Request: Please rank these molecules by LC retention time in descending order. Answer by writing out the labels in the requested order.
Response: B, D, C, A
(B: 15 min, D: 9.27 min, C: 4.27 min, A: 1.17 min)

I. CC12CCC(=O)C=C1CCC1C2C(=O)CC2(C)C1CCC2(O)C(=O)CO (configuration not stated)
II. Nc1nc2c(ncn2C2OC3COP(=O)(O)OC3C2O)c(=O)[nH]1 (configuration not stated) [GUANOSINE 3',5'-CYCLIC MONOPHOSPHATE]
III. NC(=O)C1CCCN1C(=O)C(Cc1cnc[nH]1)NC(=O)C1CCC(=O)N1 (configuration not stated)
IV. Nc1nc2nccnc2c(=O)[nH]1
Request: Please list these in order of increasing LC retention time. Thank you! Answer by writing out the labels in the requested order.
Response: III, IV, II, I
(III: 0.9 min, IV: 1.68 min, II: 2.59 min, I: 16.7 min)

P. CC1C(=O)Nc2ccccc21 (configuration not stated)
Q. Nc1ncnc2c1ncn2C1CC(O)C(COP(=O)(O)O)O1 (configuration not stated)
Request: Could you please tell me which of these two has the higher LC retention time: P or Q ? Respond with the label that goes with your answer.
Response: P
(P: 13.6 min, Q: 0.9 min)
